Measured values drawn from patent US6376707B1 for this set.

- Procedure text: Solubility in water
- Assay type: physicochemical
- Condition summary: in water (37° C.); read-out: solubility
Assay readout: solubility

Which solubility is reported for this compound? CC(NCCc1ccc(OCC(=O)O)cc1)C(O)c1ccc(O)cc1 (stereo not drawn) [crystalline form α]
2700 µg/mL

====

- Target desc: β2-Adrenoceptor (Rattus norvegicus)
- Construct: The uteri of pregnant SD rats (pregnancy day of 21) were isolated
- Sequence (P10608 whole entry): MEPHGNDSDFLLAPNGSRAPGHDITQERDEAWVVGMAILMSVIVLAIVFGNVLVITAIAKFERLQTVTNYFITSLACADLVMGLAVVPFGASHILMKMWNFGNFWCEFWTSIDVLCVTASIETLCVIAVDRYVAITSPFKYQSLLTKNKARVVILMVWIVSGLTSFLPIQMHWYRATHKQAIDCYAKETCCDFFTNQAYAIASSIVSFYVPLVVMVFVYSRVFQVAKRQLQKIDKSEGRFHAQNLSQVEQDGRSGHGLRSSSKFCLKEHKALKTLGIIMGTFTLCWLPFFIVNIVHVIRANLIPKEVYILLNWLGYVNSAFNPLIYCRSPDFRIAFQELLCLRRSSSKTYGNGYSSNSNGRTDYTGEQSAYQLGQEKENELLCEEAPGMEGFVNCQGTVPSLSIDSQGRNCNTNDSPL
- Procedure text: β2-Adrenoceptor stimulating effect: spontaneous contractions of isolated pregnant rat uterus (Magnus method)
- Condition summary: isolated uterus of pregnant SD rats (day 21), cumulative addition every 5 minutes, 37° C.; read-out: 50% inhibitory drug concentration (EC50 value), uterine contractions
Assay readout: EC50 (nM)
Number only, in nM; omit the unit.

Which EC50 is reported for this molecule? "C[C@H](NCCc1ccc(OCC(=O)O)cc1)[C@H](O)c1ccc(O)cc1"
31
